FYI, the data here is from ChEMBL document CHEMBL5131559.

For each of the compounds below, state its pEC50.
System: Human immunodeficiency virus 1
Experiment: Antiviral activity against recombinant HIV1 NLRep-Rluc harbouring polymorphic N124/T125 integrase infected in human MT-2 cells assessed as inhibition of virus growth in presence of fetal bovine serum by measuring luciferase activity after 4 days
Format: functional, organism-based
Conditions: Human immunodeficiency virus 1, NLRep, MT2, 96 h
Answers are plain numbers, as −log10 of the molar value.

List reported pEC50 for each of these compounds:
1. Cc1cccc(Cl)c1CN1CCc2cc(-c3cnc(C)c([C@H](OC(C)(C)C)C(=O)O)c3N3CCC(C)(C)CC3)ccc2C1
2. Cc1cccc(Cl)c1CN1CCc2cc(-c3c(C)nc(C)c([C@H](OC(C)(C)C)C(=O)O)c3N3CCC(C)(C)CC3)ccc2C1

A)
8.51
8.24

###

Assay: Cytotoxicity against human MT2 cells
Assay type: toxicity, cell-based
For each of the compounds below, state its CC50.

Sample records with CC50:
- Cc1cccc(Cl)c1CN1CCc2cc(-c3c(C)nc(C)c([C@H](OC(C)(C)C)C(=O)O)c3N3CCC(C)(C)CC3)ccc2C1: 22.5 µM
- Cc1nc(C)c([C@H](OC(C)(C)C)C(=O)O)c(N2CCC(C)(C)CC2)c1-c1ccc(OCCc2ccc(F)cc2)cc1: ≥ 22 µM
- Cc1nc(C)c([C@H](OC(C)(C)C)C(=O)O)c(N2CCC(C)(C)CC2)c1C1=CCN(CCCc2ccc(F)cc2)CC1: ≥ 22 µM

Q) Would you mind telling me what CC50 value was observed for "Cc1nc(C)c([C@H](OC(C)(C)C)C(=O)O)c(N2CCC(C)(C)CC2)c1-c1ccc2c(c1)CCN(c1nc3cnccc3s1)C2" ?
A) ≥ 17 µM

###

For each of the compounds below, state its Cmax.
Assay: Cmax in rat at 50 mg/kg,po qd for 1 week
Type: ADME, organism-based
Parameters: time 1 weeks, dose 50 mg/kg, route po
Conditions: in vivo

• Cc1cccc(Cl)c1CN1CCc2cc(-c3c(C)nc(C)c([C@H](OC(C)(C)C)C(=O)O)c3N3CCC(C)(C)CC3)ccc2C1 = 32 µM

Then there is this compound:
Q) Would you mind telling me what Cmax value was observed for "Cc1cccc(Cl)c1CN1CCc2cc(-c3cnc(C)c([C@H](OC(C)(C)C)C(=O)O)c3N3CCC(C)(C)CC3)ccc2C1" ?
A) 488 µM

###

For each of the molecules below, state its clearance.
Test: Clearance in Sprague-Dawley rat at 1 mg/kg, iv by LC-MS/MS analysis
Type: ADME, organism-based
Conditions: in vivo
Numbers only, in mL/min/kg.

Sample records with clearance:
* Cc1nc(C)c([C@H](OC(C)(C)C)C(=O)O)c(N2CCC(C)(C)CC2)c1-c1ccc2c(c1)CCN(c1nccc(-c3cnccn3)n1)C2 | 2.1
* Cc1cccc(Cl)c1CN1CCc2cc(-c3c(C)nc(C)c([C@H](OC(C)(C)C)C(=O)O)c3N3CCC(C)(C)CC3)ccc2C1 | 3.5
* Cc1nc(C)c([C@H](OC(C)(C)C)C(=O)O)c(N2CCC(C)(C)CC2)c1-c1ccc2c(c1)CCN(c1nc3cnccc3s1)C2 | 14.8
* Cc1cccc(F)c1CN1CCc2cc(-c3c(C)nc(C)c([C@H](OC(C)(C)C)C(=O)O)c3N3CCC(C)(C)CC3)ccc2C1 | 5.8
* Cc1nc(C)c([C@H](OC(C)(C)C)C(=O)O)c(N2CCC(C)(C)CC2)c1-c1ccc2c(c1)CCN(Cc1cccc(F)c1C)C2 | 4
* Cc1nc(C)c([C@H](OC(C)(C)C)C(=O)O)c(N2CCC(C)(C)CC2)c1-c1ccc2c(c1)CCN(Cc1ccc(F)cc1F)C2 | 20.1
* Cc1nc(C)c([C@H](OC(C)(C)C)C(=O)O)c(N2CCC(C)(C)CC2)c1-c1ccc2c(c1)CCN(c1ncnc3c1oc1ccccc13)C2 | 0.5
* Cc1nc(C)c([C@H](OC(C)(C)C)C(=O)O)c(N2CCC(C)(C)CC2)c1-c1ccc2c(c1)CCN(c1ncnc3c1cnn3C)C2 | 3.6
* Cc1cccc(Cl)c1CN1CCc2cc(-c3cnc(C)c([C@H](OC(C)(C)C)C(=O)O)c3N3CCC(C)(C)CC3)ccc2C1 | 3.8

Then there is this molecule:
Q) Would you mind telling me what clearance value was observed for "Cc1nc(C)c([C@H](OC(C)(C)C)C(=O)O)c(N2CCC(C)(C)CC2)c1-c1ccc2c(c1)CCN(Cc1cccc(F)c1F)C2" ?
A) 8.1

###

System: Human immunodeficiency virus 1
Experiment: Antiviral activity against recombinant HIV1 NLRep-Rluc harbouring polymorphic A124/T125 integrase infected in human MT-2 cells assessed as inhibition of virus growth in presence of fetal bovine serum by measuring luciferase activity after 4 days
Assay type: functional, organism-based
Settings: Human immunodeficiency virus 1, NLRep, MT2, 96 h
For each of the molecules below, state its pEC50.
One number for each entry, as −log10 of the molar value.

- Cc1cccc(Cl)c1CN1CCc2cc(-c3c(C)nc(C)c([C@H](OC(C)(C)C)C(=O)O)c3N3CCC(C)(C)CC3)ccc2C1: 8.24

Q) Would you mind telling me what pEC50 value was observed for "Cc1cccc(Cl)c1CN1CCc2cc(-c3cnc(C)c([C@H](OC(C)(C)C)C(=O)O)c3N3CCC(C)(C)CC3)ccc2C1" ?
A) 8.35

###

Assay: Clearance in cynomolgus monkey at 1 mg/kg, iv by LC-MS/MS analysis
Type: ADME, organism-based, Macaca fascicularis
Settings: in vivo
ASSAY ENDPOINT: clearance (mL/min/kg)
Answers are plain numbers, in mL/min/kg.

* Cc1cccc(Cl)c1CN1CCc2cc(-c3cnc(C)c([C@H](OC(C)(C)C)C(=O)O)c3N3CCC(C)(C)CC3)ccc2C1 | 1.7

Then there is this compound:
Q) Would you mind telling me what clearance value was observed for "Cc1cccc(Cl)c1CN1CCc2cc(-c3c(C)nc(C)c([C@H](OC(C)(C)C)C(=O)O)c3N3CCC(C)(C)CC3)ccc2C1" ?
A) 3.3

###

Assay: Toxicity in human Huh-7 cells assessed as fold change in lipid droplet count at 10 uM incubated for 48 hrs by plate reader assay
Assay type: cell-based
Conditions: huh-7, 48 h
For each of the compounds below, state its fold change (FC).
Numbers only.

• Cc1ncc(-c2ccc(OCCc3ccc(F)cc3)cc2)c(N2CCC(C)(C)CC2)c1[C@H](OC(C)(C)C)C(=O)O = 2.9

List reported fold change (FC) for each of these compounds:
1. Cc1cccc(Cl)c1CN1CCc2cc(-c3c(C)nc(C)c([C@H](OC(C)(C)C)C(=O)O)c3N3CCC(C)(C)CC3)ccc2C1
2. Cc1cccc(Cl)c1CN1CCc2cc(-c3cnc(C)c([C@H](OC(C)(C)C)C(=O)O)c3N3CCC(C)(C)CC3)ccc2C1
3. Cc1nc(C)c([C@H](OC(C)(C)C)C(=O)O)c(N2CCC(C)(C)CC2)c1-c1ccc(OCCc2ccc(F)cc2)cc1

A)
1: 4.1; 2: 1.2; 3: 3.7

###

Experiment: Clearance in CD-1 mouse at 1 mg/kg, iv by LC-MS/MS analysis
Assay type: ADME, organism-based
Conditions: in vivo
For each of the compounds below, state its clearance.
Answers are plain numbers, in mL/min/kg.

• Cc1cccc(Cl)c1CN1CCc2cc(-c3c(C)nc(C)c([C@H](OC(C)(C)C)C(=O)O)c3N3CCC(C)(C)CC3)ccc2C1 = 3.9

Then there is this compound:
Q) Would you mind telling me what clearance value was observed for "Cc1cccc(Cl)c1CN1CCc2cc(-c3cnc(C)c([C@H](OC(C)(C)C)C(=O)O)c3N3CCC(C)(C)CC3)ccc2C1" ?
A) 1

###

For each of the molecules below, state its EC50.
System: Human immunodeficiency virus 1
Experiment: Antiviral activity against recombinant HIV1 NLRep-Rluc harbouring polymorphic T124/A125 integrase infected in human MT-2 cells assessed as inhibition of virus growth in presence of fetal bovine serum by measuring luciferase activity after 4 days
Format: functional, organism-based
Conditions: Human immunodeficiency virus 1, NLRep, MT2, 96 h
Give bare numbers, in nM.

- Cc1cccc(Cl)c1CN1CCc2cc(-c3c(C)nc(C)c([C@H](OC(C)(C)C)C(=O)O)c3N3CCC(C)(C)CC3)ccc2C1: 5.4

Then there is this molecule:
Q) Would you mind telling me what EC50 value was observed for "Cc1cccc(Cl)c1CN1CCc2cc(-c3cnc(C)c([C@H](OC(C)(C)C)C(=O)O)c3N3CCC(C)(C)CC3)ccc2C1" ?
A) 5

###

Assay: AUC (0 to infinity) in cynomolgus monkey at 2 mg/kg, po by LC-MS/MS analysis
Format: ADME, organism-based, Macaca fascicularis
Set-up: time infinity, dose 2 mg/kg, route po
Conditions: in vivo
ASSAY ENDPOINT: AUC(0-inf) (µM·h)
Answers are plain numbers, in µM·h.

* Cc1cccc(Cl)c1CN1CCc2cc(-c3cnc(C)c([C@H](OC(C)(C)C)C(=O)O)c3N3CCC(C)(C)CC3)ccc2C1 | 10.7

Then there is this molecule:
Q) Would you mind telling me what AUC(0-inf) value was observed for "Cc1cccc(Cl)c1CN1CCc2cc(-c3c(C)nc(C)c([C@H](OC(C)(C)C)C(=O)O)c3N3CCC(C)(C)CC3)ccc2C1" ?
A) 5.4
